Please go through the items and note down their recombinant UMI read abundance (log10).
measurement description: recombinant UMI read abundance after kanamycin selection (control-corrected) (log10(CPM+1)); higher = more efficient recombination; extreme values may be limits of the assay; sequences stand for … in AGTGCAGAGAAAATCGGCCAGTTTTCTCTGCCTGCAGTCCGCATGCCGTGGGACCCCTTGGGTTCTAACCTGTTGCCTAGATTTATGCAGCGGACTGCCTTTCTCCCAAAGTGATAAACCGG…AGGTTGGTTTCACT; site = the 11-nt donor;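 note: IS621 bridge recombinase in Escherichia coli cells against a fixed T5 target plasmid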
Provide a numeric answer; units are not to be included.

Bench note: what recombinant UMI read abundance (log10) did GGCAATCCATGGACCGGTTTTCCCGGTAATCCGTATTTGAA (site GGCAGTCCTTT) show?
0

Bench note: what recombinant UMI read abundance (log10) did AGCCTAGCATGGACCGGTTTTCCCGGTAATCCGTATTTGTT (site AGCCTCGCTAA) show?
0.0288

Bench note: what recombinant UMI read abundance (log10) did CAAGTCACATGGACCGGTTTTCCCGGTAATCCGTATTTGGG (site CAATTCACTCC) show?
0.0165

Bench note: what recombinant UMI read abundance (log10) did GAAGATTCATGGACCGGTTTTCCCGGTAATCCGTATTTGTT (site GAAGTTTCTAA) show?
0

Bench note: what recombinant UMI read abundance (log10) did CAGACGCCATGGACCGGTTTTCCCGGTAATCCGTATTTGAC (site CAGACGCCTGT) show?
1.91

Bench note: what recombinant UMI read abundance (log10) did GAGCTCTCATGGACCGGTTTTCCCGGTAATCCGTATTTGAT (site GAGCTCTCTAT) show?
2.58

Bench note: what recombinant UMI read abundance (log10) did AGGACTGCATGGACCGGTTTTCCCGGTAATCCGTATTTGAC (site AGGACTTCTGT) show?
0

Bench note: what recombinant UMI read abundance (log10) did AGGTGCCCATGGACCGGTTTTCCCGGTAATCCGTATTTGTG (site AGGTGCCCTCA) show?
0.0128

Bench note: what recombinant UMI read abundance (log10) did CGATGCGCATGGACCGGTTTTCCCGGTAATCCGTATTTGAT (site CGATGCGCTAT) show?
2.43
